// reported % Activation for each item listed
Target: ΔF508-CFTR (Homo sapiens, UniProt P13569, DEL508-508)
Construct: host or cells: CFBE41o-, doxycycline-inducible
Sequence (P13569 with tags, fused parts or gaps DEL508-508): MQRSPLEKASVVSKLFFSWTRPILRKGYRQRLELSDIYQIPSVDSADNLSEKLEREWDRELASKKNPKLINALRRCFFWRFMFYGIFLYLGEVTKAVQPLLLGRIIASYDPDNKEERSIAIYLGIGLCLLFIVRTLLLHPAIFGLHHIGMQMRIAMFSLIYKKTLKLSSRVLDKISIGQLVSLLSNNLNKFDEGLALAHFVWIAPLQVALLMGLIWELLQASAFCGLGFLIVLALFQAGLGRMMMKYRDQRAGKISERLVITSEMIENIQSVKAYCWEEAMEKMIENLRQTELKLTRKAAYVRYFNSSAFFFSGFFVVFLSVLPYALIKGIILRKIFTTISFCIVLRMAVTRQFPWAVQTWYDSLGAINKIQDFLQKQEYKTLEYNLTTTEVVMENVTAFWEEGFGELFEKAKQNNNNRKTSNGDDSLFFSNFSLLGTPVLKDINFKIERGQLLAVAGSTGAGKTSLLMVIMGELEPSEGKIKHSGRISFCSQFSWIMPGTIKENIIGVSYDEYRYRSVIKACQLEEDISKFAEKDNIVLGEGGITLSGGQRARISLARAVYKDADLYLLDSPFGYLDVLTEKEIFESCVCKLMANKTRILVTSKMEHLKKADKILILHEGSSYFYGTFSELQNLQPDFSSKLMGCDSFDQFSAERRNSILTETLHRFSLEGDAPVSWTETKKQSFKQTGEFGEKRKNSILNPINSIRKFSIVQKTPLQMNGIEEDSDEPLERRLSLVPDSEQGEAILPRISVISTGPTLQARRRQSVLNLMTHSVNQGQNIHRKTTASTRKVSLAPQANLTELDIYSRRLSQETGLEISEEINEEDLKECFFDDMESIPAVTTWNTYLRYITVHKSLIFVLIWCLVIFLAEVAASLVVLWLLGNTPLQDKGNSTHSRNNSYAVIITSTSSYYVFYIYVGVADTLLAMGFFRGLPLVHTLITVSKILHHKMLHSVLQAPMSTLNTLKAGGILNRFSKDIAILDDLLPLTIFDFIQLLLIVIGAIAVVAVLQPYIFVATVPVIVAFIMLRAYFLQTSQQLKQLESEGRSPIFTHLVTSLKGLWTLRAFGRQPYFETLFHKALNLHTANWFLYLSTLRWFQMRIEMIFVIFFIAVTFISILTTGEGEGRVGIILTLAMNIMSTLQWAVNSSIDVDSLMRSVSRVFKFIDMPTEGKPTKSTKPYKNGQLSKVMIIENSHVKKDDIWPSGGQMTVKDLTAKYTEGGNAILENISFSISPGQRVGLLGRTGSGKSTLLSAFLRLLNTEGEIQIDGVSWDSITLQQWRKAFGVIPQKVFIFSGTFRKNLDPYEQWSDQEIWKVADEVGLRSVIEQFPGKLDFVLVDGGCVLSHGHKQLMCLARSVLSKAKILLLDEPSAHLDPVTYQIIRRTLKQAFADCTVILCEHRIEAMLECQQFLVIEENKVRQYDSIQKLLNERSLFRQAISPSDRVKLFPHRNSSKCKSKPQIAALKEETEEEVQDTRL
Assay: CFTR cell surface levels using HRP-tagged ΔF508-CFTR expressing CFBE cells, intrinsic corrector capacity
Type: cell-based
Details: HRP-tagged ΔF508-CFTR expressing CFBE cells; intrinsic corrector capacity (no co-corrector); 33° C., 20 hours
Source text: Measuring CFTR Cell Surface Levels Using HRP-Tagged AF508-CFTR Expressing CFBE Cells The HRP-tagged AF508-CFTR cell assay measures the expression of CFTR-ΔF508 at the plasma membrane. […] When HRP-tagged AF508-CFTR is present at the plasma membrane, the HRP enzyme activity can be measured. The amount of CFTR-ΔF508 that can be rescued to the plasma membrane is correlated with the amount of functional enzyme that can be measured. […]
Answer with a number only, understood to be in %.

Challenge: Answer with the recorded % Activation for the compound listed here: COCC(COC)Oc1cc(C(=O)O)nc2c1c(C1CCC1)nn2-c1ccccc1
Response given: 82.97

Ref: patent US9796711B2
